B1: CPEB3 Ribozyme (parent)
chain: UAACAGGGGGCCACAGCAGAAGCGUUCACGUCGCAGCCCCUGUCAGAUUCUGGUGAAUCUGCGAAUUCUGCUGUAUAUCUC

# Variants of: B1
# measurementDescription: self-cleavage, relative activity (ratio to wild type); higher = more cleavage; in vitro, sequencing
Criterion: self-cleavage meeting or surpassing 0.3. Met: yes. Not met: no.

Take a look at these entries with their results.
[[record]]
changes = "G24C G42A"
assignedclass = "yes"

[[record]]
changes = "A5G G53A"
assignedclass = "yes"

[[record]]
changes = "A45C U80C"
assignedclass = "yes"

[[record]]
changes = "A13G A75G"
assignedclass = "yes"

[[record]]
changes = "U49A U74C"
assignedclass = "yes"

[[record]]
changes = "U60A A77U"
assignedclass = "yes"


Please check the record A15U U48G and state if its self-cleavage is at or above 0.3.
yes

Please check the record C27U U67C and state if its self-cleavage is at or above 0.3.
no

Please check the record A64U and state if its self-cleavage is at or above 0.3.
yes

Please check the record G7U A64U and state if its self-cleavage is at or above 0.3.
no

Please check the record A28C U60A and state if its self-cleavage is at or above 0.3.
yes
